# targetOfAssay: recombinant human PDGF-BB (human, UniProt P01127 82-190)
# Sequence (P01127 82-190 limits assumed): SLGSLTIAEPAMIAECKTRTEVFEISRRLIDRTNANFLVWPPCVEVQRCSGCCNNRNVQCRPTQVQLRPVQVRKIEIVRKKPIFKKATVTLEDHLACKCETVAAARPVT
# assayMethodText: cell-based or functional assay
readoutType: Phospho-Tyr751/hPDGF-BB Neutralization (nM)
// return numeric value only (unit: nM, not printed)

Entry under review: BDI-5H1-F6 (antibody, IgG2b, V domains shown, Rat hybridoma monoclonal antibody) VH: QVTLKESGPGILQPSQTLSLTCTFSGFSLSTFGMGVGWIRQPSGKGLEWLANIWWDDDKYYNPSLKNRLTISKDTSNSQAFLEITNVDTADTATYYCARISTGISSYYVMDAWGQGASVTVSS VL: QFTLTQPKSVSGSLRSTITIPCERSSGDIGDTYVSWYQQHLGRPPINVIYGNDQRPSEVSDRFSGSIDSSSNSASLTITNLQMDDEADYFCQSYDSDIDIVFGGGTKLTVL . Reported Phospho-Tyr751/hPDGF-BB Neutralization? 0.884

Attribution: patent US20170015742A1
